Data provenance: paper PMC8386747

# reported Papp; entries follow
- measurement-protocol: in vitro
- applied-conditions: PAMPA, pH 7.4, Pe×10^-6cm/s Exp. value, PAMPA-BBB, three independent experiments
property-name: Papp (×10⁻⁶ cm/s)

[[record]]
molecule = "CN1C(C(=O)Nc2ccccn2)=C(O)c2ccccc2S1(=O)=O [Piroxicam, reference compound]"
property_name = "Papp"
recorded_value = 9.87

[[record]]
molecule = "COc1ccccc1C=CC=C(Br)S(=O)(=O)F"
property_name = "Papp"
recorded_value = 13.4

[[record]]
molecule = "CC(=O)[C@H]1CC[C@H]2[C@@H]3CCC4=CC(=O)CC[C@]4(C)[C@H]3CC[C@]12C [Progesterone, reference compound]"
property_name = "Papp"
recorded_value = 18.2


* * *

inhibition at 20 µM reference
- study-target: BuChE from equine serum (Equus caballus, UniProt P81908)
- Construct: BuChE from equine serum (C4290-1KU; Sigma); purchased Sigma C4290-1KU; host or cells: equine serum
- Sequence (P81908 whole entry): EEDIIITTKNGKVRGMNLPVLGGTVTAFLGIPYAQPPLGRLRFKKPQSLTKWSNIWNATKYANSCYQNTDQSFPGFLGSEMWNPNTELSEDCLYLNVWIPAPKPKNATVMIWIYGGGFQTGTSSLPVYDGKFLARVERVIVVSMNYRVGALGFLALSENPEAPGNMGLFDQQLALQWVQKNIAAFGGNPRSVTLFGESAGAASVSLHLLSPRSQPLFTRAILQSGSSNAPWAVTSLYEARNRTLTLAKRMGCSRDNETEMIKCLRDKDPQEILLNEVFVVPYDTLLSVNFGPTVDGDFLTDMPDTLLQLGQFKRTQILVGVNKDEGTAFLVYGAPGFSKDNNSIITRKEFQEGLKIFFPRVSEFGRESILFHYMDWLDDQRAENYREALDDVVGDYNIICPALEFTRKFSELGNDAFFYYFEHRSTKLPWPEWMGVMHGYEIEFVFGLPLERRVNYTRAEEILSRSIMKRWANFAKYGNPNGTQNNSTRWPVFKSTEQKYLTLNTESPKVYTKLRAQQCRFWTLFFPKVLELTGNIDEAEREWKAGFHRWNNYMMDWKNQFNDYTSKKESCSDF
- measurement-protocol: eqBuChE inhibition assay (Ellman's method)
- Type: biochemical
- applied-conditions: read-out: BuChE % inhibition at 20 µM; BuChE from horse serum; 20 µM
property-name: inhibition at 20 µM (%)

[[record]]
molecule = "Cc1ccc(C#C/C(=C\\C=C\\c2ccccc2)S(=O)(=O)F)cc1 [Compound D12]"
study_target = "BuChE from equine serum (Equus caballus, UniProt P81908)"
output_unit = "%"
recorded_value = 34.7

[[record]]
molecule = "O=S(=O)(F)C(Br)=CC=Cc1ccc(-c2ccccc2)cc1 [Compound A7]"
study_target = "BuChE from equine serum (Equus caballus, UniProt P81908)"
output_unit = "%"
recorded_value = 45.2

[[record]]
molecule = "O=S(=O)(F)/C(=C/C=C/c1ccccc1)c1ccc(Oc2ccccc2)cc1 [Compound D4]"
study_target = "BuChE from equine serum (Equus caballus, UniProt P81908)"
output_unit = "%"
recorded_value = 41.2

[[record]]
molecule = "O=S(=O)(F)/C(=C/C=C/c1ccccc1)c1ccc2ccccc2c1 [Compound D7]"
study_target = "BuChE from equine serum (Equus caballus, UniProt P81908)"
output_unit = "%"
recorded_value = 7.4

[[record]]
molecule = "O=S(=O)(F)/C(=C/C=C/c1ccccc1)c1ccc(Br)cc1 [Compound D5]"
study_target = "BuChE from equine serum (Equus caballus, UniProt P81908)"
output_unit = "%"
recorded_value = 30.5


* * *

- study-target: AChE from electric eel (Electrophorus electricus, UniProt O42275)
- Construct: assays were performed on AChE from electric eel (C3389-500UN; Sigma); purchased Sigma C3389-500UN
- Sequence (O42275 24-633): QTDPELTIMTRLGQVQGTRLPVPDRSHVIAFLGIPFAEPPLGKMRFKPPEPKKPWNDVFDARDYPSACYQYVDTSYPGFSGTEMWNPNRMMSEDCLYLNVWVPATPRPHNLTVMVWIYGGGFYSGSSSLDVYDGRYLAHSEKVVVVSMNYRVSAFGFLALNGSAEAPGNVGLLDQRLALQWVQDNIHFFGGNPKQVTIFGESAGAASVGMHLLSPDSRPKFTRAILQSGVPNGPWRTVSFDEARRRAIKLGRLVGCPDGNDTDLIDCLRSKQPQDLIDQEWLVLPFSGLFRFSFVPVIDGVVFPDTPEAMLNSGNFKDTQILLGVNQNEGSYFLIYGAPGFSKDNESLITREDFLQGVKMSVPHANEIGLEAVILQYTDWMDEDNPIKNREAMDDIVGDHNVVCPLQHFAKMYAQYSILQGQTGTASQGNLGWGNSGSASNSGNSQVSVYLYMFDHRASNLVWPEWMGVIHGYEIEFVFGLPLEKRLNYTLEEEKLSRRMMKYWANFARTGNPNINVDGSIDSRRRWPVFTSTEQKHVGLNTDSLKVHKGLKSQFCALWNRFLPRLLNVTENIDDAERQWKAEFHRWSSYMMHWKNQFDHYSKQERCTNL
- measurement-protocol: EeAChE inhibition assay (Ellman's method)
- Format: biochemical
- applied-conditions: read-out: AChE % inhibition at 20 µM; AChE from electric eel; 20 µM; na = no inhibitory activity at 20 µM
Kind request: treat 30% as inclusive, so inhibition at 20 µM at 30% or higher is 1, anything lower is 0.

[[record]]
compound = "O=S(=O)(F)/C(Cl)=C/C=C/c1cccc(C(F)(F)F)c1"
classification = 0

[[record]]
compound = "O=S(=O)(F)/C(=C/C=C/c1ccccc1)c1ccc2ccccc2c1"
classification = 1

[[record]]
compound = "O=C(Oc1ccc(/C(=C\\C=C\\c2ccccc2)S(=O)(=O)F)cc1)c1ccccc1"
classification = 0

[[record]]
compound = "O=S(=O)(F)/C(=C/C=C/c1ccccc1)c1ccc(Br)cc1"
classification = 0

[[record]]
compound = "COc1ccc(/C(=C\\C=C\\c2ccccc2)S(=O)(=O)F)cc1"
classification = 1

[[record]]
compound = "O=S(=O)(F)/C(C#Cc1ccc(Br)cc1)=C/C=C/c1ccccc1"
classification = 1

[[record]]
compound = "CCc1ccc(/C(=C\\C=C\\c2ccccc2)S(=O)(=O)F)cc1 [Compound D1]"
classification = 0

[[record]]
compound = "COc1cccc(C=CC=C(Br)S(=O)(=O)F)c1"
classification = 1

[[record]]
compound = "COc1ccccc1/C=C/C=C(\\Cl)S(=O)(=O)F"
classification = 1

[[record]]
compound = "O=S(=O)(F)/C(Cl)=C/C=C/c1ccc(F)cc1"
classification = 0


* * *

- study-target: eqBuChE (Equus caballus)
- Construct: BuChE from equine serum (C4290-1KU; Sigma)
- Sequence (P81908 whole entry): as the sequence (P81908 whole entry) above
- measurement-protocol: Kinetic study of eqBuChE inhibition
- applied-conditions: eqBuChE; Lineweaver–Burk secondary plot; read-out: dissociation constant Ki
property-name: Ki

[[record]]
item_smiles = "COc1ccccc1C=CC=C(Br)S(=O)(=O)F"
recorded_value = "29 nM"


* * *

In this section, each of the molecules is paired with its reported IC50.
- study-target: AChE from electric eel (Electrophorus electricus)
- Construct: assays were performed on AChE from electric eel (C3389-500UN; Sigma); purchased Sigma C3389-500UN
- measurement-protocol: EeAChE inhibition assay (Ellman's method)
- Assay type: biochemical
- applied-conditions: AChE from electric eel; mean ± SEM; read-out: AChE IC50
property-name: IC50 (nM)

[[record]]
molecule = "O=[N+]([O-])c1ccccc1C=CC=C(Br)S(=O)(=O)F [Compound A11]"
property_name = "IC50"
output_unit = "nM"
recorded_value = 150

[[record]]
molecule = "O=S(=O)(F)C(Br)=CC=Cc1ccccc1Br [Compound A8]"
property_name = "IC50"
output_unit = "nM"
recorded_value = 107

[[record]]
molecule = "O=S(=O)(F)/C(C#Cc1cccc(Br)c1)=C/C=C/c1ccccc1 [Compound D8]"
property_name = "IC50"
output_unit = "nM"
recorded_value = 2730

[[record]]
molecule = "O=S(=O)(F)/C(C#CC1CC1)=C/C=C/c1ccccc1 [Compound D14]"
property_name = "IC50"
output_unit = "nM"
recorded_value = 1540


* * *

- study-target: BuChE from equine serum (Equus caballus, UniProt P81908)
- Construct: BuChE from equine serum (C4290-1KU; Sigma)
- measurement-protocol: eqBuChE inhibition assay (Ellman's method)
- applied-conditions: BuChE from horse serum; mean ± SEM
pIC50: −log10 of the molar value.
This section presents compounds with their documented pIC50 values.
property-name: pIC50

[[record]]
item_smiles = "O=S(=O)(F)/C(Cl)=C/C=C/c1ccc(F)cc1"
recorded_value = 6.29

[[record]]
item_smiles = "Cc1ccc(C=CC=C(Br)S(=O)(=O)F)cc1"
recorded_value = 5.76

[[record]]
item_smiles = "COc1cccc(C=CC=C(Br)S(=O)(=O)F)c1"
recorded_value = 6.52

[[record]]
item_smiles = "O=S(=O)(F)/C(I)=C/C=C/c1ccc(Cl)cc1"
recorded_value = 5.51

[[record]]
item_smiles = "COc1ccccc1/C=C/C=C(\\Cl)S(=O)(=O)F"
recorded_value = 6.89

[[record]]
item_smiles = "O=S(=O)(F)C(Br)=CC=Cc1ccc(F)cc1"
recorded_value = 6.37

[[record]]
item_smiles = "O=S(=O)(F)C(Br)=CC=CC=Cc1ccccc1"
recorded_value = 4.90

[[record]]
item_smiles = "O=S(=O)(F)/C(C#CC1CC1)=C/C=C/c1ccccc1"
recorded_value = 6.37

[[record]]
item_smiles = "O=S(=O)(F)/C(Cl)=C/C=C/c1cccc(C(F)(F)F)c1"
recorded_value = 6.30

[[record]]
item_smiles = "COc1ccccc1C=CC=C(Br)S(=O)(=O)F"
recorded_value = 7.68


* * *

- study-target: AChE from electric eel (Electrophorus electricus, UniProt O42275)
- Construct: assays were performed on AChE from electric eel (C3389-500UN; Sigma); purchased Sigma C3389-500UN
- measurement-protocol: EeAChE inhibition assay (Ellman's method)
- Type: biochemical
pIC50: −log10 of the molar value.
property-name: pIC50

[[record]]
molecule = "O=S(=O)(F)C(Br)=CC=Cc1ccc(Cl)nc1 [Compound A18]"
recorded_value = 7.10


* * *

- study-target: AChE from electric eel (Electrophorus electricus)
- Construct: assays were performed on AChE from electric eel (C3389-500UN; Sigma); purchased Sigma C3389-500UN
- measurement-protocol: EeAChE inhibition assay (Ellman's method)
- Type: biochemical
- applied-conditions: read-out: AChE % inhibition at 20 µM; AChE from electric eel; 20 µM; na = no inhibitory activity at 20 µM
property-name: inhibition at 20 µM

[[record]]
molecule = "O=S(=O)(F)/C(=C/C=C/c1ccccc1)c1ccc(Oc2ccccc2)cc1"
property_name = "inhibition at 20 µM"
recorded_value = "36.7%"

[[record]]
molecule = "O=S(=O)(F)/C(Cl)=C/C=C/c1ccccc1"
property_name = "inhibition at 20 µM"
recorded_value = "35.9%"

[[record]]
molecule = "Cc1ccc(S(=O)(=O)n2cc(C=CC=C(Br)S(=O)(=O)F)c3ccccc32)cc1"
property_name = "inhibition at 20 µM"
recorded_value = "46.2%"

[[record]]
molecule = "O=S(=O)(F)/C(I)=C/C=C/c1ccc(Cl)cc1"
property_name = "inhibition at 20 µM"
recorded_value = "38.9%"

[[record]]
molecule = "O=S(=O)(F)/C(I)=C/C=C/c1ccc(Br)cc1"
property_name = "inhibition at 20 µM"
recorded_value = "10.5%"

[[record]]
molecule = "COc1ccccc1/C=C/C=C(\\I)S(=O)(=O)F"
property_name = "inhibition at 20 µM"
recorded_value = "39.5%"

[[record]]
molecule = "O=S(=O)(F)/C(C#Cc1ccccc1F)=C/C=C/c1ccccc1"
property_name = "inhibition at 20 µM"
recorded_value = "47.7%"

[[record]]
molecule = "O=S(=O)(F)C(Br)=CC=Cc1cccc(C(F)(F)F)c1"
property_name = "inhibition at 20 µM"
recorded_value = "12.1%"

[[record]]
molecule = "COc1ccccc1C=CC=C(Br)S(=O)(=O)F"
property_name = "inhibition at 20 µM"
recorded_value = "40.8%"

[[record]]
molecule = "CSc1ccc(/C(=C\\C=C\\c2ccccc2)S(=O)(=O)F)cc1 [Compound D2]"
property_name = "inhibition at 20 µM"
recorded_value = "25.5%"

